The entries below are paired with their reported kon.
Molecular target: T1, TrkA-IgG (UniProt P04629 33-423, limits assumed)
T1 construct: also called specific antigen TrkA-IgG; not shown: IgG part of the fusion
T1 sequence (P04629 33-423 limits assumed): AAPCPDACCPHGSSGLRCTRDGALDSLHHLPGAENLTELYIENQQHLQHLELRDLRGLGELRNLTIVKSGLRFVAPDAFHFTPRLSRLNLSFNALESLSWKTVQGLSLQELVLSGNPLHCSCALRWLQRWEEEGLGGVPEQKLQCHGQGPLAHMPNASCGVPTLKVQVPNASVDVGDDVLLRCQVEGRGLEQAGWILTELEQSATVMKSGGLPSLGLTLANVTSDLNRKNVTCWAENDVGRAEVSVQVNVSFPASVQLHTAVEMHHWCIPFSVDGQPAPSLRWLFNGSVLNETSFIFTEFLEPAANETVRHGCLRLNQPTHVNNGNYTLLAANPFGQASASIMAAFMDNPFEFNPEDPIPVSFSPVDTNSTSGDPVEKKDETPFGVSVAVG
Test: SPR (BIACORE 2000), TrkA-IgG immobilised on CM-5 chip, 'separated 1:1' fit
Property Measured: kon (M⁻¹ s⁻¹)

{"Binder": "BXhVH3VL3 (antibody, human IgG1, V domains shown, Human IgG1 constant regions (IgG1 expression vectors); also called hVH3/hVL3) VH: EVQLLESGGGLVQPGGSLRLSCAASGFTFSTYTMSWVRQAPGKRLEWVAYISKGGGSTYYPDTVKGRFTISRDNSKNTLYLQMNSLRAEDTAVYYCARGAMYGNDFFYPMDYWGQGTTVTVSS VL: QIVLTQSPATLSLSPGERATLSCSASSSVSYMHWYQQKPGQSPRLLIYTTSNLASGIPSRFSGSGSGTFYTLTISSLEPEDFAVYYCHQWSSYPWTFGGGTKLEIK", "Property Measured": "kon", "Recorded Number": 325000}
{"Binder": "BXhVH5VL3 (antibody, human IgG1, V domains shown, Human IgG1 constant regions (IgG1 expression vectors); also called hVH5/hVL3) VH: EVKLLESGGGLVQPGGSLRLSCAASGFTFSTYTMSWVRQTPGKRLEWVAYISKGGGSTYYPDTVKGRFTISRDNSKNTLYLQMNSLRAEDTAVYYCARGAMYGNDFFYPMDYWGQGTTVTVSS VL: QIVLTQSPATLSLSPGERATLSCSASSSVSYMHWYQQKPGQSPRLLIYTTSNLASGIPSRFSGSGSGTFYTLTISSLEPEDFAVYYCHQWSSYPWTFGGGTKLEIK", "Property Measured": "kon", "Recorded Number": "1e+06"}
{"Binder": "muMNACEP (antibody, V domains shown, Murine monoclonal antibody as disclosed in EP1181318; also called murine antibody MNAC13; MNAC13) VH: EVKLMESGGGLVQPGGSLKLSCAASGFTFSTYTMSWARQTPEKRLEWVAYISKGGGSTYYPDTVKGRFTISRDNAKNTLYLQMSSLKSEDTALYYCARGAMYGNDFFYPMDYWGQQTSVTVSS VL: DIVLSQSPAIMSASLGEEITLTCSASSSVSYMHWYQQKSGTSPKLLITTTSNLASGVPSRFSGSGSGTFYSLTISSVEAEDAADYYCHQWSSYPWTFGGGTKLEIK", "Property Measured": "kon", "Recorded Number": 850000}
{"Binder": "HuMNACWOv (antibody, V domains shown, Variant of HuMNACWO whose heavy chain CDR3 is replaced with that of muMNACEP; also called hVHWOv/hVLWO; HuVHWOv/HuVLWO) VH: EVQLLESGGGLVQPGGSLRLSCAASGFTFSTYTMSWARQAPGKGLEWVAYISKGGGSTYYPDTVKGRFTISRDNSKNTLYLQMNSLRAEDSAVYYCARGAMYGNDFFYPMDYWGQGTLVTVSS VL: DIVLTQSPSSLSASVGDRVTITCSASSSVSYMHWYQQKPGQAPKLLIYTTSNLASGVPSRFSGSGSGTDYTLTISSLQPEDVATYYCHQWSSYPWTFGGGTKVEIK", "Property Measured": "kon", "Recorded Number": "1.62e+06"}
